Each entry below lists one item and its recorded RSV-9320 Neutral. IC50 [pM] value.
# Experimental target: RSV-F of RSV subtype B strain 9320 (respiratory syncytial virus subtype B, …)
# Protocol details: cell-based or functional assay
Value expressed in pM; do not type the unit.

Example results:
INSERT INTO measurements (binder, observation_type, recorded_result) VALUES
  ('Control I (palivizumab sequence) (antibody, V domains shown, also called Control 1; SYNAGIS) VH: QVTLRESGPALVKPTQTLTLTCTFSGFSLSTSGMSVGWIRQPPGKALEWLADIWWDDKKDYNPSLKSRLTISKDTSKNQVVLKVTNMDPADTATYYCARSMITNWYFDVWGAGTTVTVSS VL: DIQMTQSPSTLSASVGDRVTITCKCQLSVGYMHWYQQKPGKAPKLLIYDTSKLASGVPSRFSGSGSGTEFTLTISSLQPDDFATYYCFQGSGYPFTFGGGTKLEIKR', 'RSV-9320 Neutral. IC50 [pM]', 460),
  ('H1H3592P3 (antibody, V domains shown) VH: EVQLVESGGDLVQPGRSLRLSCVASGFTFDDYAMHWVRQAPGKGLEWVSGVSWSGSTVGYADSVKGRFTVSRDNAQKSLYLQMNSLRAEDTALYYCVKDAYKFNYYYYGLDVWGQGTTVTVSS VL: EIVMTQSPATLSVSPGERATLSCRASQTILSNLAWYLQKPGQAPRLLIYGASTRATGLPARFSGSGSGTEFTLTISSLQSEDFAVYYCQQYNNWPLTFGGGTKVEIK', 'RSV-9320 Neutral. IC50 [pM]', 100),
  ('H1H3627N (antibody, V domains shown) VH: EVQLVESGGGLVQPGGSLRLSCAASGFTISNYEMNWVRQAPGKGLEWVSYISTSGITIYYADSVQGRFTISRDNAKNSLYLQLNSLRAEDTAVYYCARGYCTNGVCYPHYYYSDMDVWGQGTTVTVSS VL: DIQMTQSPSSLSASVGDRLTITCRASQTISTYLNWFQQKVGNAPKLLIYSTSSLQSGVPARFSGSGSGTDFTLTISSLQPEDFATYYCQQSYSSPPTFGQGTKVEIK', 'RSV-9320 Neutral. IC50 [pM]', 11);

Please examine the following record next.
Reported RSV-9320 Neutral. IC50 [pM] ( Control II (motavizumab sequence) (antibody, V domains shown) VH: QVTLRESGPALVKPTQTLTLTCTFSGFSLSTAGMSVGWIRQPPGKALEWLADIWWDDKKHYNPSLKDRLTISKDTSKNQVVLKVTNMDPADTATYYCARDMIFNFYFDVWGQGTTVTVSS VL: DIQMTQSPSTLSASVGDRVTITCSASSRVGYMHWYQQKPGKAPKLLIYDTSKLASGVPSRFSGSGSGTEFTLTISSLQPDDFATYYCFQGSGYPFTFGGGTKVEIKR ) = 56
